CC50 tested on 293 T-ACE2 cells: recorded values
# number only, unit µM dropped from output

# example entries with known answers
>>> recorded_measurement("C=C(C)[C@@H]1CC[C@]2(C(=O)OCCCCCC)CC[C@]3(C)[C@H](CC[C@@H]4[C@@]5(C)CC[C@H](O[C@@H]6O[C@H](CO)[C@@H](O[C@@H]7O[C@@H](C)[C@H](O)[C@@H](O)[C@H]7O)[C@H](O)[C@H]6O[C@@H]6O[C@@H](C)[C@H](O)[C@@H](O)[C@H]6O)C(C)(C)[C@@H]5CC[C@]43C)[C@@H]12")
16.4
>>> recorded_measurement("C=C(C)[C@@H]1CC[C@]2(C(=O)OCC)CC[C@]3(C)[C@H](CC[C@@H]4[C@@]5(C)CC[C@H](O[C@@H]6O[C@H](CO)[C@@H](O[C@@H]7O[C@@H](C)[C@H](O)[C@@H](O)[C@H]7O)[C@H](O)[C@H]6O[C@@H]6O[C@@H](C)[C@H](O)[C@@H](O)[C@H]6O)C(C)(C)[C@@H]5CC[C@]43C)[C@@H]12")
36.1

IN: Dear colleague, please send me the reported CC50 for C=C(C)[C@@H]1CC[C@]2(C(=O)OCCBr)CC[C@]3(C)[C@H](CC[C@@H]4[C@@]5(C)CC[C@H](O[C@@H]6O[C@H](CO)[C@@H](O[C@@H]7O[C@@H](C)[C@H](O)[C@@H](O)[C@H]7O)[C@H](O)[C@H]6O[C@@H]6O[C@@H](C)[C@H](O)[C@@H](O)[C@H]6O)C(C)(C)[C@@H]5CC[C@]43C)[C@@H]12 when you can.
OUT: 46.1

IN: Answer with reported CC50 of C=C(C)[C@@H]1CC[C@]2(C(=O)OCCCC)CC[C@]3(C)[C@H](CC[C@@H]4[C@@]5(C)CC[C@H](O[C@@H]6O[C@H](CO)[C@@H](O[C@@H]7O[C@@H](C)[C@H](O)[C@@H](O)[C@H]7O)[C@H](O)[C@H]6O[C@@H]6O[C@@H](C)[C@H](O)[C@@H](O)[C@H]6O)C(C)(C)[C@@H]5CC[C@]43C)[C@@H]12
OUT: 76.5
